- MEASURED_TARGET: MELK (Homo sapiens)
- Sequence (Q14680 whole entry): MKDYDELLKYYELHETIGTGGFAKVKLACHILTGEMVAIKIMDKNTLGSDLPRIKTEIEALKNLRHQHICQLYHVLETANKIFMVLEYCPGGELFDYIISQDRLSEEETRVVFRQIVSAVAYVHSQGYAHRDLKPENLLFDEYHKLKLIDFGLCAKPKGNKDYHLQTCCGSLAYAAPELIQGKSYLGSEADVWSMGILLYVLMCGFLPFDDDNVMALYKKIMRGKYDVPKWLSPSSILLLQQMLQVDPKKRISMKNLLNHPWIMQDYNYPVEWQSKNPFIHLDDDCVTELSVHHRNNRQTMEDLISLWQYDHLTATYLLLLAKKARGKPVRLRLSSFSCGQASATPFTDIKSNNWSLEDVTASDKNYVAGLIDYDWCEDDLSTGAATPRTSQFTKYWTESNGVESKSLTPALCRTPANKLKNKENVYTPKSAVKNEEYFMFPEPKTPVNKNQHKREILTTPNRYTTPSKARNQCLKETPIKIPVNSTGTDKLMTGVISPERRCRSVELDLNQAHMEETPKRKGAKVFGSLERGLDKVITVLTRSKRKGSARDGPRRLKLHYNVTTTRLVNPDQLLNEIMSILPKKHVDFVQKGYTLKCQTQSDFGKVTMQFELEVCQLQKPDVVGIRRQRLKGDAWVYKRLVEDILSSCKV
QUANTITY_KIND: Kd (nM)
Entry rule: numbers only, all in nM.

The compound listed as CCOC(=O)c1cnc2ccc(-c3ccncc3)nc2c1N[C@H]1CC[C@H](CN(C)C)CC1 has a reported Kd of 15

* * *

- PROTOCOL: in vitro
- STATED_CONDITIONS: human, HEK293T cells
QUANTITY_KIND: CC50 at 48 h

Looking up O=C(O)[C@]1(Cc2cccc(Nc3nccs3)n2)CC[C@@H](Oc2cccc(Cl)c2F)CC1 [MK-5108] , I found its CC50 at 48 h recorded as > 10 µM

* * *

Can you tell me CC50 at 48 h for the items I'm about to list?
- PROTOCOL: in vitro
- STATED_CONDITIONS: human
Express the result in nM but write the number alone.

Memo: CCN(CCO)CCCOc1ccc2c(Nc3cc(CC(=O)Nc4cccc(F)c4)[nH]n3)ncnc2c1 [AZD-1152-HQPA] , reported CC50 at 48 h: 38.9

For reference, reported CC50 at 48 h for O=C(O)c1ccc(Nc2ncc3c(n2)-c2ccc(Cl)cc2C(c2c(F)cccc2F)=NC3)cc1 [MLN-8054] stands at 55.1

* * *

- PROTOCOL: Caco-2 permeability assay
- Assay type: in vitro ADME
- STATED_CONDITIONS: 10 μM, pH 7.4, direction not stated
QUANTITY_KIND: Caco-2

Sample CCOC(=O)c1cnc2ccc(-c3cc(Cl)c(O)c(Cl)c3)nc2c1NC1CCN(C)CC1 ; Caco-2 observed: 4.6 1 x 10^−6 cm/s

The compound listed as CCOC(=O)c1cnc2ccc(-c3cc(Cl)c(O)c(Cl)c3)nc2c1N[C@H]1CC[C@H](CC(N)=O)CC1 shows Caco-2 equal to 0.01 1 x 10^−6 cm/s

Caco-2 reading for CCCCNC(=O)c1cnc2ccc(-c3cc(Cl)c(O)c(Cl)c3)nc2c1N[C@H]1CC[C@H](C(=O)N2CCOCC2)CC1 : 9.1 1 x 10^−6 cm/s

The value of Caco-2 measured for the compound CCOC(=O)c1cnc2ccc(-c3ccncc3)nc2c1N[C@H]1CC[C@H](CN(C)C)CC1 turned out to be 4.03 1 x 10^−6 cm/s

# Caco-2 (compound: CCOC(=O)c1cnc2ccc(-c3cc(Cl)c(O)c(Cl)c3)nc2c1N[C@H]1CC[C@H](C(=O)N(C)C)CC1 ) is 0.12 1 x 10^−6 cm/s

Recorded result, CCOC(=O)c1cnc2ccc(-c3ccnc(N)c3)nc2c1N[C@H]1CC[C@H](CN2CCOCC2)CC1 , Caco-2: 2.7 1 x 10^−6 cm/s
